- protocol: amyloid nucleation score (Sup35N fusion, yeast selection) (log enrichment); library NNK3; higher = more nucleation; inactive = no reads after selection;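 also: zero at mode of non-aggregating sequences after 7 days selection at 30°C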
measuredMetric: amyloid nucleation score

| substance | measuredMetric | result |
| --- | --- | --- |
| YANDANSCDWCICAFDRRSC | amyloid nucleation score | inactive |
| NSNGCVQGQRFSWPWVGRLA | amyloid nucleation score | inactive |
| NKSRTYCSARRLHRGKFRLI | amyloid nucleation score | inactive |
| LCQTVCRAPI | amyloid nucleation score | inactive |
| GVNVTKVFTFRMVSCGPDDF | amyloid nucleation score | 0.294 |
| VKTYFTSLRFVISMGWLNNQ | amyloid nucleation score | inactive |
| MIVGYACFAFGAWFFGFYCM | amyloid nucleation score | inactive |
| YSVWVGLCVYSDGYRYNMPE | amyloid nucleation score | 2.06 |
| YVSPNF | amyloid nucleation score | inactive |
| VTCCARTYYSWP | amyloid nucleation score | inactive |
| FGIWCTIPWLLFRYSVDMFM | amyloid nucleation score | inactive |
| WCTSFGELEVYRVALILRTA | amyloid nucleation score | inactive |
| SACNAPSLNSTLIVT | amyloid nucleation score | inactive |
| DMYVLLMRTQSLGMPLIGIS | amyloid nucleation score | inactive |
| SFRFVSLVLFAVNDNYGRCW | amyloid nucleation score | 1.61 |
| NNCRSLY | amyloid nucleation score | 0.927 |
